Reported self-cleavage is given for each of the following variants.
B1: HDV Ribozyme (parent)
chain: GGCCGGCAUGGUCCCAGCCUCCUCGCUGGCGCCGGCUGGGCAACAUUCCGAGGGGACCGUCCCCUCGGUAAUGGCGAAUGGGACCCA

variants of: B1; assay: self-cleavage, relative activity (ratio to wild type); higher = more cleavage; co-transcriptional
Give the figure only, with no unit attached.

Completed entries (count: 3):
[[record]]
ordered_residues = "GGCCGGCAUGGUCCAAGCCUCCUCGCUGGCGCCGGCUGGGCAACAUUCCGAGGAGACCGUCCCCUCGGUAAUGGCGAAUGGGACCCA [C15A G54A]"
readout_name = "self-cleavage"
experimental_value = 0.504

[[record]]
ordered_residues = "GGCCGGCAUGGUCCCAGCCUCCUCGCUGGCACCGUCUGGGCAACAUUCCGAGGGGACCGUCCCCUCGGUAAUGGCGAAUGGGACCCA [G31A G35U]"
readout_name = "self-cleavage"
experimental_value = 0.102

[[record]]
ordered_residues = "GGCCGGCAUGCUCCCAGCCUCCUCGCUGGCGCCGGCUGGGCAACAUUCCGAGGGGACCGUCCCCUCGGUAAUGGCGAAUGGGACCAA [G11C C86A]"
readout_name = "self-cleavage"
experimental_value = 0.489


input: May I ask what self-cleavage has been recorded for GGCCGGCAUGGUCCCAGCCUCCUCGCUGGCGCCGGCUGGGCAACAUUCCGAGGGGACCGGCCCCUCGGUAAUGGCGAUUGGGACCCA [U60G A78U] ?
output: 0.178
